tested on: HCT116 cells; test: Measurement of effect of inhibiting cancer cell proliferation (MTT); assay type: cell-based, human; conditions: Homo sapiens, HCT-116, 48 h
quantity measured: GI50 (µM)
The reply should be a number in µM, with the unit left off.

molecule="CSc1ccc(NC(=N)NC(=N)N2CCCCC2)cc1.Cl [Example 43, hydrochloride]" value_measured=37.1
molecule="CN1CCN(C(=N)NC(=N)Nc2ccc(OC(F)(F)F)cc2)CC1.Cl [Example 35, hydrochloride]" value_measured=46.7
molecule="Cl.N=C(NC(=N)N1CCCCC1)Nc1cc(Br)cc(OC(F)(F)F)c1 [Example 67, hydrochloride]" value_measured=2.9
molecule="Cl.N=C(NC(=N)N1CCCCC1)Nc1cc(F)cc(F)c1 [Example 60, hydrochloride]" value_measured=48.2

Quick check: GI50 on HCT116 cells, item Cl.N=C(NC(=N)N1CCC1)Nc1ccc(OC(F)(F)F)c(Cl)c1 [Example 55, hydrochloride] ?
7.3

###

# reported Solubility in water (%), acetate salt; entries follow
assay: Solubility in water of hydrochloride and acetate salts; format: physicochemical; settings: content 10 mg/1 ml distilled water, room temperature
The reply should be a number in %, with the unit left off.

smiles_input=N=C(NC(=N)N1CCCC1)Nc1ccc(OC(F)(F)F)c(F)c1 unit_text=% value_measured=100

Could you tell me which Solubility in water (%), acetate salt is on file for N=C(NC(=N)N1CCCCC1)Nc1ccc(C(F)(F)F)cc1 ?
50

Could you tell me which Solubility in water (%), acetate salt is on file for N=C(NC(=N)N1CCCC1)Nc1ccc(OC(F)(F)F)cc1 ?
100

Could you tell me which Solubility in water (%), acetate salt is on file for N=C(NC(=N)N1CCCCC1)Nc1ccc(OC(F)(F)F)c(F)c1 ?
50

###

experiment: Solubility in water of hydrochloride and acetate salts; assay type: physicochemical; settings: content 20 mg/1 ml distilled water, room temperature
# reported Solubility in water (%), acetate salt; entries follow
Please don't drop the unit; write it after the number.

Sample answers from the record:
compound="N=C(NC(=N)N1CCCC1)Nc1ccc(C(F)(F)F)c(F)c1 [Example 74]" quantity_measured="Solubility in water (%), acetate salt" value_measured=50%
compound="N=C(NC(=N)N1CCCC1)Nc1ccc(C(F)(F)F)cc1 [Example 70]" quantity_measured="Solubility in water (%), acetate salt" value_measured=100%
compound="N=C(NC(=N)N1CCCCC1)Nc1ccc(OC(F)(F)F)cc1 [Example 73]" quantity_measured="Solubility in water (%), acetate salt" value_measured=20%

Then this compound:
Could you tell me which Solubility in water (%), acetate salt is on file for N=C(NC(=N)N1CCCC1)Nc1ccc(OC(F)(F)F)cc1 [Example 72] ?
100%

###

# reported inhibition at 100 µM; entries follow
tested on: HCT116 cells; test: Measurement of effect of inhibiting cancer cell proliferation (MTT); assay type: cell-based, human; details: Homo sapiens, HCT-116, 100 μM, 48 hours, read-out: Cell Growth Inhibition (%) at 100 μM
The reply should be a number in %, with the unit left off.

compound="Cl.N=C(NC(=N)N1CCCCC1)Nc1cccc(O)c1 [Example 11, hydrochloride]" quantity_measured="inhibition at 100 µM" unit_text=% value_measured=29.7
compound="CCc1cccc(NC(=N)NC(=N)N2CCCCC2)c1.Cl [Example 10, hydrochloride]" quantity_measured="inhibition at 100 µM" unit_text=% value_measured=97.4
compound="Cl.N=C(NC(=N)N1CCCCC1)Nc1ccc(OC(F)(F)F)c(Cl)c1 [Example 57, hydrochloride]" quantity_measured="inhibition at 100 µM" unit_text=% value_measured=96.3
compound="Cl.N=C(NC(=N)N1CCCCC1)Nc1ccc(Cl)c(OC(F)(F)F)c1 [Example 51, hydrochloride]" quantity_measured="inhibition at 100 µM" unit_text=% value_measured=96.3
compound="Cl.N=C(NC(=N)N1CCCCC1)Nc1ccc(Cl)cc1 [Example 18, hydrochloride]" quantity_measured="inhibition at 100 µM" unit_text=% value_measured=97.7

Could you tell me which inhibition at 100 µM is on file for Cl.N=C(NC(=N)N1CCCCC1)Nc1cccc(N)c1 [Example 36, hydrochloride] ?
43.6

Could you tell me which inhibition at 100 µM is on file for Cl.N=C(NC(=N)N1CCCCC1)Nc1cccc(Br)c1 [Example 7, hydrochloride] ?
97.2

Could you tell me which inhibition at 100 µM is on file for Cl.N=C(NC(=N)N1CCCCC1)Nc1ccc(OC(F)(F)F)c(F)c1 [Example 54, hydrochloride] ?
96.4

Could you tell me which inhibition at 100 µM is on file for Cl.N=C(NC(=N)N1CCCC1)Nc1ccc(Cl)cc1 [Example 17, hydrochloride] ?
97.4

Could you tell me which inhibition at 100 µM is on file for Cl.N=C(NC(=N)N1CCCCC1)Nc1cccc(OC(F)(F)F)c1 [Example 29, hydrochloride] ?
98

Entry source: patent US9540325B2
